Test system: NCI-H322M lung
Experiment: NCI-60 one-dose screen, 48 h (100 = growth as untreated, 0 = no growth, -100 = all killed)
Settings: 10 µM unless noted
This is part of a sample that, as a whole, favours compounds with a hit. Of some 83,000 tested, about 20% had one in any assay.
Classification field: met = growth at or over 90%; not met = growth under 90%.

Request: Please tell me: is the compound O=C(/C=C/C12c3ccccc3C(c3ccccc31)C1C(=O)N(c3ccccc3)C(=O)C12)c1ccc(Cl)cc1 (stereo not drawn) at or over 90% in terms of growth?
Result: not met

Request: Try this compound too: COc1ccc(C2CC(c3ccc4ccccc4c3)=NN2c2nc(O)c(C3=c4cc(Cl)ccc4=NC3=O)s2)cc1 (stereo not drawn)
Result: not met

Request: And for O=C(Oc1ccc[nH]c1=O)c1cc([N+](=O)[O-])cc([N+](=O)[O-])c1 ?
Result: met

Request: Cool, now COc1ccc(-c2cc(-c3ccc(Nc4nc(Nc5ccccc5)nc(Nc5ccc(Cl)cc5)n4)cc3)nc(N)c2C#N)cc1
Result: not met

Request: Try C=C(C=O)[C@@H]1CC=C(C=O)CC1 next.
Result: not met

Request: // repeat for Cc1cc2c(F)c(Oc3ncnc(Nc4ccc(N5C[C@@H](C)N[C@@H](C)C5)cc4)c3C#N)cc(F)c2[nH]1 and report
Result: not met

Request: Entry O=C1Nc2ccccc2/C1=N/N=C/c1ccc(OC2OC(CO)C(O)C(O)C2O)cc1 (stereo not drawn) please
Result: met
